Entry source: ChEMBL document CHEMBL4017546

assay: Elimination half life in C57BL6 mouse at 60 mg/kg, sc administered as single dose measured up to 24 hrs by HPLC analysis; assay type: ADME, organism-based; conditions: in vivo, read-out: beta t1/2 (converted)
ASSAY READOUT: half-life (h)
Numeric only. Scale: h

## Task // returns reported half-life for input COC(=O)c1ccc(C(=O)Nc2ccc(-c3ccc(C(=O)Nc4cccc5cccc(S(=O)(=O)O)c45)cc3)cc2)cc1
## Result 2

###

biological target: CD40-CD40L (Homo sapiens, UniProt P25942+P29965); experiment: Inhibition of human Fc-conjugated CD40/FLAG-tagged biotinylated CD40L costimulatory protein-protein interaction incubated for 1 hr by ELISA-type assay
Sequence (P25942 21-277 limits assumed): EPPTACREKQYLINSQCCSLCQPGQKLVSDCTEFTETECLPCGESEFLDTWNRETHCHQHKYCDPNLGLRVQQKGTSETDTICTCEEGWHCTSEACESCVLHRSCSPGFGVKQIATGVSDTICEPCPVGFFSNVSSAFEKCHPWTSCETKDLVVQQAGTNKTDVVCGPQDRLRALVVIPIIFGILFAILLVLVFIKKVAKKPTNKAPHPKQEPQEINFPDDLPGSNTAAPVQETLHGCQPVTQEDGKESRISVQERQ
Sequence (P29965 113-261 partner limits assumed): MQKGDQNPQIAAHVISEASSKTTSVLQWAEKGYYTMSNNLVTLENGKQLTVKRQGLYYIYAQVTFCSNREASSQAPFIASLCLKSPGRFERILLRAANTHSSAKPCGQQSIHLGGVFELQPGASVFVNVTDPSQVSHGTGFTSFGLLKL
Activity calls are given as the source filed them. The rule behind the calls is not given here.
Allowed answers: t for active, f for inactive

The following molecules have reported results that may help.
O=C(Nc1ccc(-c2ccc(C(=O)Nc3cccc4cccc(S(=O)(=O)O)c34)cc2)cc1)c1ccc([N+](=O)[O-])cc1 ... t
O=C(Nc1ccc(-c2ccc(C(=O)Nc3cccc4cccc(S(=O)(=O)O)c34)cc2)cc1)c1ccc2[nH]nnc2c1 ... t
CSCC[C@H](NC(=O)[C@@H](NC(=O)[C@H](Cc1ccc(O)cc1)NC(=O)[C@H](Cc1ccc(O)cc1)NC(=O)CNC(=O)[C@H](CCCCN)NC(=O)[C@H](CCCCN)NC(=O)[C@H](C)NC(=O)[C@H](Cc1c[nH]c2ccccc12)NC(=O)[C@H](CCC(N)=O)NC(=O)[C@H](CC(C)C)NC(=O)[C@@H](N)C(C)C)[C@@H](C)O)C(=O)N[C@@H](CCCCN)C(=O)N[C@@H](CO)C(=O)N[C@@H](CC(N)=O)C(=O)O ... f
COC(=O)c1ccc(C(=O)Nc2ccc(-c3ccc(C(=O)Nc4cccc5cccc(S(=O)(=O)O)c45)cc3)cc2)cc1 ... t
O=C(Nc1ccc(-c2ccc(C(=O)Nc3ccc(S(=O)(=O)O)c4ccccc34)cc2)cc1)c1ccc([N+](=O)[O-])cc1 ... t

Lab note: next molecule to report on.
## Task Recorded test call requested for O=C(Nc1ccc(-c2ccc(C(=O)Nc3ccc(C(=O)O)c4ccccc34)cc2)cc1)c1ccc([N+](=O)[O-])cc1
## Result t
